// values below are reported pIC50
system: SF-539; experiment: NCI cytotoxicity screen (SRB); type: cell-based, human; conditions: SF-539; subsequent test date
pIC50: −log10 of the molar value.
MEASURED ENDPOINT: pIC50

CN(C)CCNC(=O)c1nc(NC(=O)c2nc(NC(=O)c3nc(NC(=O)c4ccc(N(CCCl)CCCl)cc4)cn3C)cn2C)cn1C :: 6.23
CN(C)CCNC(=O)c1nc(NC(=O)c2nc(NC(=O)c3ccc(N(CCCl)CCCl)cc3)cn2C)cn1C :: 4.24

====

tested on: HCT-116; assay: NCI cytotoxicity screen (SRB); type: cell-based, human; conditions: 48 h; Colon Cancer HCT-116
pIC50: −log10 of the molar value.
Reported pIC50 values for the following compounds.
MEASURED ENDPOINT: pIC50

CN(C)CCNC(=O)c1nc(NC(=O)c2nc(NC(=O)c3nc(NC(=O)CCCc4ccc(N(CCCl)CCCl)cc4)cn3C)cn2C)cn1C :: 5.24
CN(C)CCNC(=O)c1nc(NC(=O)c2nc(NC(=O)c3ccc(N(CCCl)CCCl)cc3)cn2C)cn1C :: 5.18
CN(C)CCNC(=O)c1nc(NC(=O)c2nc(NC(=O)CCCc3ccc(N(CCCl)CCCl)cc3)cn2C)cn1C :: 4.30

====

biological target: poly(dAdT); assay: ethidium displacement assay, poly(dAdT); assay type: binding; settings: ± 0.02 × 10^5 M^-1, pH 7.4
# Association constant Kapp annotations
MEASURED ENDPOINT: Association constant Kapp (M⁻¹)

CN(C)CCNC(=O)c1nc(NC(=O)c2nc(NC(=O)CCCc3ccc(N(CCCl)CCCl)cc3)cn2C)cn1C :: 54000
CN(C)CCNC(=O)c1nc(NC(=O)c2nc(NC(=O)c3nc(NCc4ccc(N(CCCl)CCCl)cc4)cn3C)cn2C)cn1C :: 457000
Cn1cc(NC(=O)c2cc(NC(=O)c3cc(NC=O)cn3C)cn2C)cc1C(=O)NCCC(=N)N :: 3.48e+07
CN(C)CCNC(=O)c1nc(NC(=O)c2nc(NC(=O)c3nc(NC(=O)CCCc4ccc(N(CCCl)CCCl)cc4)cn3C)cn2C)cn1C :: 13000
CN(C)CCNC(=O)c1nc(NC(=O)c2nc(NC(=O)c3nc(NC(=O)c4ccc(N(CCCl)CCCl)cc4)cn3C)cn2C)cn1C :: 950000
CN(C)CCNC(=O)c1nc(NC(=O)c2nc(NC(=O)c3ccc(N(CCCl)CCCl)cc3)cn2C)cn1C :: 475000

====

test system: TK-10; experiment: NCI cytotoxicity screen (SRB); type: cell-based, human; details: TK-10; subsequent test date
pIC50: −log10 of the molar value.
Entries annotated with measured pIC50
MEASURED ENDPOINT: pIC50

CN(C)CCNC(=O)c1nc(NC(=O)c2nc(NC(=O)c3ccc(N(CCCl)CCCl)cc3)cn2C)cn1C :: 4.25
CN(C)CCNC(=O)c1nc(NC(=O)c2nc(NC(=O)c3nc(NC(=O)c4ccc(N(CCCl)CCCl)cc4)cn3C)cn2C)cn1C :: 5.45

====

IC50: recorded values
system: SF-539; assay: NCI cytotoxicity screen (SRB); type: cell-based, human; conditions: 48 h; CNS Cancer SF-539
MEASURED ENDPOINT: IC50

CN(C)CCNC(=O)c1nc(NC(=O)c2nc(NC(=O)c3nc(NC(=O)CCCc4ccc(N(CCCl)CCCl)cc4)cn3C)cn2C)cn1C [Compound 10] :: 6.13 µM
CN(C)CCNC(=O)c1nc(NC(=O)c2nc(NC(=O)CCCc3ccc(N(CCCl)CCCl)cc3)cn2C)cn1C [Compound 9] :: 47.9 µM
CN(C)CCNC(=O)c1nc(NC(=O)c2nc(NC(=O)c3ccc(N(CCCl)CCCl)cc3)cn2C)cn1C [Compound 6] :: 6.97 µM

====

Reported IC50 by item:
tested on: M14; assay: NCI cytotoxicity screen (SRB); assay type: cell-based, human; details: M14; subsequent test date
MEASURED ENDPOINT: IC50 (µM)

CN(C)CCNC(=O)c1nc(NC(=O)c2nc(NC(=O)c3nc(NC(=O)c4ccc(N(CCCl)CCCl)cc4)cn3C)cn2C)cn1C :: 0.59
CN(C)CCNC(=O)c1nc(NC(=O)c2nc(NC(=O)c3ccc(N(CCCl)CCCl)cc3)cn2C)cn1C :: 5.81

====

tested on: 786-0; test: NCI cytotoxicity screen (SRB); type: cell-based, human; conditions: 48 h; Renal Cancer 786-0
pIC50: −log10 of the molar value.
MEASURED ENDPOINT: pIC50

CN(C)CCNC(=O)c1nc(NC(=O)c2nc(NC(=O)c3ccc(N(CCCl)CCCl)cc3)cn2C)cn1C [Compound 6] :: 4.60

====

tested on: Molt-4; experiment: NCI cytotoxicity screen (SRB); type: cell-based, human; conditions: Molt-4; subsequent test date
MEASURED ENDPOINT: IC50

CN(C)CCNC(=O)c1nc(NC(=O)c2nc(NC(=O)c3ccc(N(CCCl)CCCl)cc3)cn2C)cn1C [Compound 6] :: > 100 µM

====

test system: RXR-631; assay: NCI cytotoxicity screen (SRB); assay type: cell-based, human; conditions: RXR-631; subsequent test date
MEASURED ENDPOINT: IC50 (µM)

CN(C)CCNC(=O)c1nc(NC(=O)c2nc(NC(=O)c3ccc(N(CCCl)CCCl)cc3)cn2C)cn1C :: 9.95

====

test system: NCI-H23; assay: NCI cytotoxicity screen (SRB); format: cell-based, human; conditions: 48 h; Non-Small Cell Lung Cancer NCI-H23
pIC50: −log10 of the molar value.
Recorded measurements of pIC50, one per entry
MEASURED ENDPOINT: pIC50

CN(C)CCNC(=O)c1nc(NC(=O)c2nc(NC(=O)CCCc3ccc(N(CCCl)CCCl)cc3)cn2C)cn1C :: 4.17
CN(C)CCNC(=O)c1nc(NC(=O)c2nc(NC(=O)c3nc(NC(=O)CCCc4ccc(N(CCCl)CCCl)cc4)cn3C)cn2C)cn1C :: 4.46
CN(C)CCNC(=O)c1nc(NC(=O)c2nc(NC(=O)c3ccc(N(CCCl)CCCl)cc3)cn2C)cn1C :: 4.33
CN(C)CCNC(=O)c1nc(NC(=O)c2nc(NC(=O)c3nc(NC(=O)c4ccc(N(CCCl)CCCl)cc4)cn3C)cn2C)cn1C :: 6.02

====

tested on: LOX 1MV1; test: NCI cytotoxicity screen (SRB); format: cell-based, human; settings: LOX 1MV1; subsequent test date
pIC50: −log10 of the molar value.
MEASURED ENDPOINT: pIC50

CN(C)CCNC(=O)c1nc(NC(=O)c2nc(NC(=O)c3ccc(N(CCCl)CCCl)cc3)cn2C)cn1C :: 5.13
CN(C)CCNC(=O)c1nc(NC(=O)c2nc(NC(=O)c3nc(NC(=O)c4ccc(N(CCCl)CCCl)cc4)cn3C)cn2C)cn1C :: 5.35

====

tested on: human chronic myelogenous leukemic K562 cells; test: growth inhibition of K562 cells (MTT viability assay); type: cell-based; settings: Homo sapiens, K562; 1 hour drug exposure at 37° C.; 5-6 days; MTT
MEASURED ENDPOINT: IC50 (µM)

CN(C)CCNC(=O)c1nc(NC(=O)c2nc(NC(=O)CCl)cn2C)cn1C [Compound 11] :: 350
CN(C)CCNC(=O)c1nc(NC(=O)c2nc(NC(=O)CBr)cn2C)cn1C [Compound 12] :: 400

====

test system: human chronic myelogenous leukemic K562 cells; assay: growth inhibition of K562 cells (MTT viability assay); type: cell-based; conditions: Homo sapiens, K562; 1 hour drug exposure at 37° C.; 5-6 days; MTT
pIC50: −log10 of the molar value.
MEASURED ENDPOINT: pIC50

CN(C)NC(=O)c1nc(NC(=O)c2nc(NC=O)cn2C)cn1C [Compound 13] :: < 3.30
CN(C)CCNC(=O)c1nc(NC(=O)c2nc(NC=O)cn2C)cn1C [Compound 14] :: < 3.30
CN(C)CCNC(=O)c1nc(NC(=O)c2nc(NC(=O)c3nc(NC=O)cn3C)cn2C)cn1C [Compound 15] :: < 3.30
